Test system: IGROV1 ovarian
Method Description: NCI tumour cell line growth inhibition, 48 h
Measured Metric: GI50

CCCCCCC/C=C/[C@H]1O[C@]2(O)C(=O)C=C3C[C@@H](O[C@@H]4O[C@H](CO)[C@@H](O)C(O)[C@@H]4O)C[C@@H]3[C@H]2C=C1C (some centres undefined); 2.77 µM

For every record below, what is its GI50?
1. CNc1cc2nc3cc(NC)c(C)cc3cc2cc1C
2. Clc1nc(Cl)c2c3c(sc2n1)CCCC3
3. CCOC(=O)c1ccc2c(c1)nc(/C=C/c1ccc(Cl)cc1)n2-c1cc(C(C)(C)C)[nH]n1

Reply:
1: 0.562 µM; 2: 3.85 µM; 3: 5.09 µM

###

Field: TGI. Provide a value for each of the compounds that follow.
Test system: SK-MEL-5 melanoma
Method Description: NCI tumour cell line growth inhibition, 48 h

Sample answers from the record:
CCCCCCCCCCC/C=C\C[C@H](O)C/C=C1/C(=O)C=C[C@@H]1C/C=C\CCCC(=O)OC; 1.17 µM
CSCC[C@H](NC(=O)[C@H](CC(C)C)NC(=O)[C@@H](Cc1ccccc1)NC(=O)CNC(=O)[C@@H](NC(=O)[C@H](C)NC(=O)[C@H](Cc1c[nH]c2ccccc12)NC(=O)[C@H](CCC(N)=O)NC(=O)[C@H](N)CC(N)=O)C(C)C)C(N)=O; > 12.5 µM
CN(C)c1ccc(-c2c(C#N)c(O)n(NS(=O)(=O)c3ccccc3)c(=O)c2C#N)cc1; > 100 µM
COC(=O)C(Cc1ccccc1)NP(=O)(O)OCC1OC(n2cc(I)c(=O)[nH]c2=O)CC1O (configuration not stated); > 100 µM
CC(C)(C)CNC(=O)NCn1cc(-c2ccccc2)nn1; > 100 µM
CC(C)=CCC1=C(OCC(=O)O)C(=O)c2ccccc2C1=O; 41.4 µM
O=C(O)CCNC(=O)c1cc(N(CCBr)CCBr)c([N+](=O)[O-])cc1[N+](=O)[O-]; > 100 µM
CCC/C(Cl)=N\OC(=O)Nc1cccc(C(F)(F)F)c1; 28.9 µM
COC(=O)c1c2c(cc3c1CC1(C3)Cc3cc4c(c(C(C)=O)c3C1)CCC4)C=CC2 (configuration not stated); > 31.6 µM
NC(=O)c1ncn(CCN2CCN(C(=O)NCCCCCCNC(=O)N3CCN(CCn4cnc(C(N)=O)c4N)CC3)CC2)c1N; > 100 µM

For every record below, what is its TGI?
1. Cc1ccc(NCC(=O)N2CC(=O)Nc3ccccc32)cc1
2. CC(Oc1ccc(OCC2CCCCC2)cc1)C(=O)NCCO (configuration not stated)

Reply:
["> 100 µM", "> 100 µM"]

###

System: MALME-3M melanoma
Method Description: NCI tumour cell line growth inhibition, 48 h
Field: TGI. Provide a value for each of the compounds that follow.

c1cc(CSSCc2ccncc2)ccn1; > 100 µM
C[N+](C)(CCCCCC[N+](C)(C)CCCN1C(=O)c2cc3ccccc3cc2C1=O)CCCN1C(=O)c2cc3ccccc3cc2C1=O; > 37.5 µM
CC(C)COC(=O)OC(=O)c1ccc(N(C)Cc2cnc3nc(N)nc(N)c3n2)cc1; > 100 µM
NC(=O)C(=CNC(=S)Nc1ccc(Cl)c(Cl)c1)C(N)=O; > 100 µM
Cc1[nH]c(C(=O)Nc2ccccc2OC2CCNCC2)c(Cl)c1Cl; 1.55 µM
Cc1ccc(C2N=C(N)NC3=C2CCOc2c3ccc3ccccc23)cc1 (centres undefined); > 40.6 µM

For every record below, what is its TGI?
1. CC(=O)OC12c3ccccc3-c3ccccc3C1C(C(=O)O)C2(Cl)C(=O)O (centres undefined)
2. O=C1CCCC(=O)N1n1c(Cc2ccccc2)n[nH]c1=O
3. O=c1c2ccccc2nc2n1C(c1ccc([N+](=O)[O-])cc1)C2(c1ccccc1)c1ccccc1 (centres undefined)
4. Cc1ccc(NCC(=O)N2CC(=O)Nc3ccccc32)cc1
5. C[n+]1c2ccccc2n2c3ccccc3c(NCCc3ccccn3)c(C#N)c21
6. C/C(=N\NC(=S)N1CCN(C2CCCCCC2)CC1)c1ccccn1
7. Cc1ccc(NC(=O)CC/C(CC(=O)C(C)(C)C)=N/NC(=O)C[N+](C)(C)C)cc1C
8. O=C(CC(C(=O)c1cccs1)c1cccs1)c1ccccc1Cl (centres undefined)

Reply:
1. > 10 µM
2. > 100 µM
3. > 100 µM
4. > 100 µM
5. 12 µM
6. 3.09 µM
7. > 100 µM
8. > 100 µM

For every record below, what is its TGI?
1. CCOP(=O)(Nc1ccccc1P(=O)(OCC)OCC)OCC
2. N.N.O=P([O-])([O-])CN(CCN(CP(=O)([O-])[O-])CP(=O)([O-])[O-])CP(=O)([O-])[O-].[Pt+2]

Reply:
1: > 100 µM; 2: > 100 µM

For every record below, what is its TGI?
1. CCN1C(=O)/C(=C2\SC(c3ccccc3)(c3ccccc3)c3ccccc32)SC1=S
2. NC1=NN(c2ccccc2)C(=O)C1/C(=N\NC(=O)c1cc2ccccc2cc1O)C(=O)Nc1cccc(C(F)(F)F)c1 (centres undefined)
3. CCCC[n+]1c(/C=C\c2c(OC)cc(OC)cc2OC)ccc2ccccc21
4. NC(=S)N/N=C/c1ccc(N)cn1
5. COC(=O)C[CH2][Ge]([CH3])([CH3])[S]c1ccccc1
6. COc1cccc(-n2cc(-c3nc(Nc4cc(C)[nH]n4)c4ccccc4n3)nn2)c1
7. Cn1c2ccccc2c(=O)c2c(O)cc3c(c21)CC(C1(C)CO1)O3 (centres undefined)
8. OC(c1cc2ccccc2[nH]1)C1(c2cccnc2)SCCCS1 (centres undefined)

Reply:
1: > 100 µM; 2: > 100 µM; 3: 2.07 µM; 4: > 10 µM; 5: > 100 µM; 6: 13.7 µM; 7: 28.4 µM; 8: > 100 µM

For every record below, what is its TGI?
1. Clc1nc(Cl)c2c3c(sc2n1)CCCC3
2. COc1ccc(CNC(C)C(=O)O)cc1 (centres undefined)
3. COC(=O)C(C(=O)C(=O)Nc1ccccc1C#N)c1nc2ccc([N+](=O)[O-])cc2[nH]c1=O (centres undefined)

Reply:
1: > 100 µM; 2: > 100 µM; 3: > 100 µM
